assay: Uncompetitive inhibition of histidine-tagged Escherichia coli ATCase catalytic domain assessed as N-carbamoyl-L-aspartate formation by colorimetric assay
result_type: Ki

Enquiry: Identify Ki associated with the compound O=C(O)C[C@H](NC(=O)CP(=O)(O)CCO)C(=O)O
Return: 2.5 µM

---

Measured Ratio Ki values are reported for all entries that follow.
test system: Escherichia coli; assay: Ratio of compound Ki to N-phosphonacetyl-L-aspartate Ki for histidine-tagged Escherichia coli ATCase catalytic domain
No unit in the answer, please; the number alone is enough.

// solved cases for Ratio Ki follow
[
  {
    "molecule": "O=C(O)C[C@H](NC(=O)C[PH](=O)CO)C(=O)O (some centres not stated)",
    "Ratio Ki": 12
  },
  {
    "molecule": "O=C(O)C[C@@H](C(=O)O)N1CCP(=O)(O)CC1=O",
    "Ratio Ki": 63
  }
]

Enquiry: Read the entry O=C(O)C[C@H](NC(=O)CP(=O)(O)CCO)C(=O)O and write its reported Ratio Ki.
Return: 156

Enquiry: Return Ratio Ki for the following molecule: O=C(O)C[C@H](NC(=O)NCP(=O)(O)O)C(=O)O
Return: 131

Enquiry: Indicate the recorded Ratio Ki value for this molecule: O=C(O)C[C@H](NC(=O)C[PH](=O)O)C(=O)O
Return: 26

Enquiry: Indicate its recorded Ratio Ki; the molecule in question is O=C(O)C[C@H](NC(=O)COP(=O)(O)O)C(=O)O
Return: 13

Enquiry: Identify Ratio Ki associated with the molecule O=C(O)C[C@H](NC(=O)CP(=O)(O)CC(=O)O)C(=O)O
Return: 225
